meta.source: patent US20240246946A1

Catalogue of IC50 values
- Study System: hTREX1 (Homo sapiens, UniProt Q9NSU2)
- Sequence (Q9NSU2 whole entry): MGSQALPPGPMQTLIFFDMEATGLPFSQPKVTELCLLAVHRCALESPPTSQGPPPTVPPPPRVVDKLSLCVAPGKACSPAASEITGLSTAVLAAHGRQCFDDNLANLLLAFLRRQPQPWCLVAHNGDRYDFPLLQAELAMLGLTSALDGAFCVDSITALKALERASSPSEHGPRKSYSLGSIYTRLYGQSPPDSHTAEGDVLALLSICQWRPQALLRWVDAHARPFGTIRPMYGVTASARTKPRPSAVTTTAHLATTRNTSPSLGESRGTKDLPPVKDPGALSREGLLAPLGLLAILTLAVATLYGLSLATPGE
- Assay Summary: hTREX1 HCT116 Cell Assay (HCT116 dual cells, Lucia luciferase reporter of Type I interferon induction)
- Condition: TREX1i 4 h before pBR322/BstNI transfection, read after 48 h
Endpoint Name: IC50

INSERT INTO assay_data (compound, endpoint_name, measured_result) VALUES
  ('Cc1cnc(C)c(C(c2cc(F)ccc2C#N)C(C)c2nc(C(=O)Nc3cnoc3)c(O)c(=O)n2C)n1 (single isomer, unassigned) [Example 119 D1E2]', 'IC50', '> 100 nM'),
  ('CC(c1nc(C(=O)Nc2cnoc2)c(O)c(=O)n1C)C(c1ccccc1)c1cccnc1C#N (single isomer, unassigned) [Example 155 D1E2]', 'IC50', '> 100 nM'),
  ('Cc1ccc(C(c2ccccc2C#N)C(C)c2nc(C(=O)Nc3cnoc3)c(O)c(=O)n2C)cn1 (single isomer, unassigned) [Example 5 D1E2]', 'IC50', '< 10 nM'),
  ('Cc1cc(C(c2ccccc2C#N)C(C)c2nc(C(=O)Nc3cnoc3)c(O)c(=O)n2C)ccn1 (single isomer, unassigned) [Example 6 D1E1]', 'IC50', '< 10 nM'),
  ('CC(c1nc(C(=O)Nc2cnoc2)c(O)c(=O)n1C)C(c1cnn(C)c1)c1ccc(Cl)cc1C#N (single isomer, unassigned) [Example 27 D1E1]', 'IC50', '< 10 nM'),
  ('CC(c1nc(C(=O)Nc2cnoc2)c(O)c(=O)n1C)C(c1cnn(C)c1)c1ccc(C(=O)N(C)C)cc1C#N (single isomer, unassigned) [Example 11 D1E1]', 'IC50', '> 100 nM'),
  ('Cc1ncc(C(c2ccccc2Cl)C(C)c2nc(C(=O)Nc3cnoc3)c(O)c(=O)n2C)cn1 (single isomer, unassigned) [Example 44 D1E2]', 'IC50', '10 to 100 nM'),
  ('CC(c1nc(C(=O)Nc2cnoc2)c(O)c(=O)n1C)C(c1ccccc1)c1cccnc1C#N (single isomer, unassigned) [Example 155 D2E1]', 'IC50', '10 to 100 nM'),
  ('CC(c1nc(C(=O)Nc2cnoc2)c(O)c(=O)n1C)C(c1cnn(CC(F)F)c1)c1cc(F)ccc1C#N (single isomer, unassigned) [Example 102 D1E2]', 'IC50', '10 to 100 nM');

---

- Study System: full length mouse TREX1 (Mus musculus)
- Construct: N-terminally His-Tev tagged full length mouse TREX1; made in house; host or cells: E. coli
- Sequence (Q91XB0 whole entry): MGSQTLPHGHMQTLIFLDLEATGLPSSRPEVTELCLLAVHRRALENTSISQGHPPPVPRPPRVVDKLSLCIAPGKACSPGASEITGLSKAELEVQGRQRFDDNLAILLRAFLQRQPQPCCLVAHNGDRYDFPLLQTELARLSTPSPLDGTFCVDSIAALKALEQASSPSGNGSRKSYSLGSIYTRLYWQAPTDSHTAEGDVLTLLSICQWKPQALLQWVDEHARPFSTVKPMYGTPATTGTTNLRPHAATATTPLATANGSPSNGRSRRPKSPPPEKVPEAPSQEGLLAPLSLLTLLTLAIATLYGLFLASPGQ
- Assay Summary: mTREX1 Biochemical Assay (fluorescence, dsDNA substrate degradation)
- Condition: biochemical, read-out: mTREX1 IC50
Endpoint Name: IC50

INSERT INTO measurements (compound, measured_result) VALUES
  ('Cc1ncc(C(c2ccccc2Cl)C(C)c2nc(C(=O)Nc3cnoc3)c(O)c(=O)n2C)cn1 (single isomer, unassigned) [Example 44 D1E1]', '> 0.01 µM'),
  ('COCCn1nc(C)c(C(c2cc(F)ccc2C#N)C(C)c2nc(C(=O)Nc3cnoc3)c(O)c(=O)n2C)c1C (single isomer, unassigned) [Example 110 D1E2]', '> 0.01 µM'),
  ('CC(c1nc(C(=O)Nc2cnoc2)c(O)c(=O)n1C)C(c1ccccc1Cl)c1cnn(C)c1C#N (single isomer, unassigned) [Example 96 D2E2]', '0.001 to 0.01 µM'),
  ('Cc1ncc(C(c2cc(F)ccc2C#N)C(C)c2nc(C(=O)Nc3cnoc3)c(O)c(=O)n2C)nc1C (single isomer, unassigned) [Example 124 D1E2]', '0.001 to 0.01 µM'),
  ('CC(c1nc(C(=O)Nc2cnoc2)c(O)c(=O)n1C)C(c1cnn(C(F)F)c1)c1ccccc1C#N (single isomer, unassigned) [Example 38 D2E1]', '> 0.01 µM'),
  ('CC(c1nc(C(=O)Nc2cnoc2)c(O)c(=O)n1C)C(c1cnn(C)c1)c1ccccc1Cl (single isomer, unassigned) [Example 77 D1E2]', '> 0.01 µM'),
  ('Cc1nccc(C(c2ccccc2C#N)C(C)c2nc(C(=O)Nc3cnoc3)c(O)c(=O)n2C)n1 (single isomer, unassigned) [Example 83 D2E1]', '> 0.01 µM'),
  ('COCCn1cc(C(c2ccccc2C#N)C(C)c2nc(C(=O)Nc3cnoc3)c(O)c(=O)n2C)cn1 (single isomer, unassigned) [Example 9 D1E2]', '> 0.01 µM'),
  ('Cc1cn(C)nc1C(c1ccccc1C#N)C(C)c1nc(C(=O)Nc2cnoc2)c(O)c(=O)n1C (single isomer, unassigned) [Example 64 D2E2]', '> 0.01 µM');
